The origin of these recorded values is ChEMBL document CHEMBL1123394.

MCC: recorded values
# Test system: Vero
# Procedure Text: Antiviral activity was measured against forest virus in african green monkey kidney (Vero B) cells.
# Format: functional
# Experimental Parameters: Chlorocebus sabaeus

Example cases with answers are listed next.
1. Nc1nc(S)c2ncn(C3O[C@H](CO)[C@H](O)[C@H]3O)c2n1 (stereo partly drawn)    > 200 µg/mL
2. Nc1nc(O)c2ncn([C@@H]3O[C@H](CO)[C@H](O)[C@H]3O)c2n1    > 400 µg/mL

Record lookup: for Vero, what MCC belongs to Nc1ncnc2c1ncn2C[C@H](O)CO [(S)-DHPA] ?
> 400 µg/mL
